Biological target: T1, VP1 pentamer of BKV genotype IV (recombinant) (BK virus genotype IV, UniProt P14996 30-300)
T1 construct: also called GIV; VP1 BKV subtype IV; not shown: N-terminal His-tag of pESPRIT002; C-terminal biotin acceptor peptide (BAP) of pESPRIT002
Test: ELISA, coated VP1 pentamer
property.label: EC50 (µg/mL)
Give your result in µg/mL as a bare value.

Inquiry: Look at this binder and give its reported EC50. antibody C11P1 (antibody, V domains shown) VH: QVQLQESGPGLVKPSETLSLTCTVSGGSIRNSYWSWIRQPPGKGLEWIGYIYYTGTTNSNPSLKSRATISVHMSQNQISLKLNSVTPADTAVYYCAQGGGSGDLHYWGQGTLVTVSS VL: NFMLTQPASVSGSPGQSITISCTGTRSDVGGYNYVSWYQQHPGKAPKLMIYDISSRPSGVSNRFSASKSGNTASLTISGLQAEDEADYYCISFATGYTWVFGGGTRLTVL
Reply text: 0.22

Inquiry: What about antibody C6P7 (antibody, V domains shown) VH: QVQLQESGPGLVRPSQTLSLTCTVSGGSMTSGSYYWSWIRQPAEKGLEWIGRIYTSGRTDYNPSLKSRVAMSIDTSKNQFSLRLTSVTAADTAVYYCARWGDSSAYYYVGDPWGRGTPVTVSS VL: DIQMTQSPSSLSASIGDRVTITCRASQNINTYLYWYQQKPGKAPQLLIYAASNLQTGAPSRFSGSGSGTDFTLTISSLQPADFATYYCQQSFSLPHTFGQGTKVEIK ?
Reply text: 0.08
